tested on: Glioblastoma cell line U87 cells; test: MTT cell viability assay, glioblastoma cells; assay type: cell-based; conditions: Homo sapiens, U-87 MG, 72 h, U87 glioblastoma cells, MTT after three days
pIC50: −log10 of the molar value.
This listing pairs molecules with measured pIC50.

> print(dat)
                                   molecule  reported.value
1  OCC1(CCCc2ccccc2)CCCN(c2ccncn2)C1 (centres unmarked) [PLH2062]           ~4.52

Q. Please look up its pIC50: CC(C)(C)OC(=O)N1CCCC(CO)(CCCc2ccccc2)C1 (centres unmarked) [PLH1196]
A. ~4.52

Q. How about COC(=O)C1(CCCc2ccccc2)CCCN(C(=O)OC(C)(C)C)C1 (centres unmarked) [PLH1195] ?
A. ~4.65

Q. O=C(O)C1(CCCc2ccccc2)CCCNC1 (centres unmarked) [PLH1197] ?
A. ~4.10

Q. OCC1(CCCc2ccccc2)CCCN(c2ncnc3cc(Cl)ccc23)C1 (centres unmarked) [PLH2074] , same question.
A. ~5.70

Where do these numbers come from? They come from patent US20220213055A1.
